Measured MIC Enterococcus faecium (GC 2243), listed per entry.
- System: Enterococcus sp.
- EXPERIMENT_DESCRIPTION: In vitro antibacterial evaluation: minimum inhibitory concentration (MIC), broth dilution method
- Format: cell-based
- MEASUREMENT_CONDITIONS: Enterococcus faecium (GC 2243); 18 hours at 35° C.
Please give a number only; it is taken to be in µg/mL.

# COMPOUND, MIC Enterococcus faecium (GC 2243) / µg/mL
rows = [
    ("CCCCN1CC(C(O)C2NC(=O)C(C(O)C3CNC(=N)N3)NC(=O)C(Cc3ccc(OC4OC(CO)C(OC5OC6COC7(OC6C(O)C5O)C5CC6CC(C5)CC7C6)C(O)C4O)cc3)NC(=O)C(C(C)c3ccccc3)NC(=O)CNC(=O)C(CO)NC2=O)N(C2OC(CO)C(O)C(O)C2O)C1=N (stereo not shown)", 2),
]

Please give the measured MIC Enterococcus faecium (GC 2243) for this compound: CC(c1ccccc1)C1NC(=O)CNC(=O)C(CO)NC(=O)C(C(O)C2CNC(=N)N2C2OC(CO)C(O)C(O)C2O)NC(=O)C(C(O)C2CNC(=N)N2)NC(=O)C(Cc2ccc(OC3OC(CO)C(OC4OC5COC(C)(c6ccc(F)cc6)OC5C(O)C4O)C(O)C3O)cc2)NC1=O (stereo not shown)
4

Please give the measured MIC Enterococcus faecium (GC 2243) for this compound: CC(c1ccccc1)C1NC(=O)CNC(=O)C(CO)NC(=O)C(C(O)C2CNC(=N)N2C2OC(CO)C(O)C(O)C2O)NC(=O)C(C(O)C2CNC(=N)N2)NC(=O)C(Cc2ccc(OC3OC(CO)C(OC4OC(CO)C(OCC=Cc5ccc(N(C)C)cc5)C(O)C4O)C(O)C3O)cc2)NC1=O (stereo not shown) [Example 243a]
32

Please give the measured MIC Enterococcus faecium (GC 2243) for this compound: COc1ccc(COCC2OC(OC3C(CO)OC(Oc4ccc(CC5NC(=O)C(C(C)c6ccccc6)NC(=O)CNC(=O)C(CO)NC(=O)C(C(O)C6CNC(=N)N6C6OC(CO)C(O)C(O)C6O)NC(=O)C(C(O)C6CNC(=N)N6)NC5=O)cc4)C(O)C3O)C(O)C(O)C2O)cc1 (stereo not shown)
16
